TESTED TARGET: von Hippel-Lindau disease tumor suppressor/Elongin-C/Elongin-B/HIF1A (Homo sapiens, UniProt P40337+Q15369+Q15370+Q16665)
Sequence (P40337 whole entry, looked up): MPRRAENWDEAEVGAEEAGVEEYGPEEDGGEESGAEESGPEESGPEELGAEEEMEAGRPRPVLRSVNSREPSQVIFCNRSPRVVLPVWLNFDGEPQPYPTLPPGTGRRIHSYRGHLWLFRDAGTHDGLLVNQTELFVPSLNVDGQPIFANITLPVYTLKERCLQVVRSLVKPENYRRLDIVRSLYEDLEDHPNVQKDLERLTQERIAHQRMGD
Sequence (Q15369 whole entry, looked up): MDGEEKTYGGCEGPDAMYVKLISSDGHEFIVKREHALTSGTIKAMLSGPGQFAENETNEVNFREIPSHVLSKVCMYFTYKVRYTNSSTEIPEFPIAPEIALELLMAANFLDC
Sequence (Q15370 whole entry, looked up): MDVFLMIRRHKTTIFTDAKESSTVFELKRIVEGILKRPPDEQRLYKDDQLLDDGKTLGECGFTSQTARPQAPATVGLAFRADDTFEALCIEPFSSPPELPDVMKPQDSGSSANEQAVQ
Sequence (Q16665 whole entry, looked up): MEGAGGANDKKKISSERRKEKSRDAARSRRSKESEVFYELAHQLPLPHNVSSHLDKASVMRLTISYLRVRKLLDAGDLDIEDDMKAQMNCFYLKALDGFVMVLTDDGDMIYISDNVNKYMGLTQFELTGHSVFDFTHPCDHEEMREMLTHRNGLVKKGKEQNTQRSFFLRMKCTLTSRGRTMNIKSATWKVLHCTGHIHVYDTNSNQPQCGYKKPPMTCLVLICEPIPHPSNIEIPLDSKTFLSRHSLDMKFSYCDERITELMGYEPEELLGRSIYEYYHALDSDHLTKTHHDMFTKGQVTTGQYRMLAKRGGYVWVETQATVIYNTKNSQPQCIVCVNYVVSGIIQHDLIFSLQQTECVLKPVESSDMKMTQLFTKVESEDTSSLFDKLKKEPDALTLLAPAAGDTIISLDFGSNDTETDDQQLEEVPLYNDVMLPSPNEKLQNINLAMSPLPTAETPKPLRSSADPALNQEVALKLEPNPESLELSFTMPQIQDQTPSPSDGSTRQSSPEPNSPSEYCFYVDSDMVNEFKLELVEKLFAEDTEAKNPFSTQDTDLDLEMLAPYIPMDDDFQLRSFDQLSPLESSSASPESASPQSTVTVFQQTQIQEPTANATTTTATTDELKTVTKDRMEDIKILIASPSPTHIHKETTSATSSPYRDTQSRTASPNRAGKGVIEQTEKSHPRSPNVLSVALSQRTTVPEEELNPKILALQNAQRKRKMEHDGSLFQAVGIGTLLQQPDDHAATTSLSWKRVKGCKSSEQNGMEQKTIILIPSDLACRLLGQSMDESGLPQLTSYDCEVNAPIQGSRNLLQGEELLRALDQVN
ASSAY TEXT: Inhibition of His-tagged VHL/elongin B/elongin C (unknown origin) interaction with HIF1alpha preincubated for 10 mins followed by fluorescin labelled HIF1alpha peptide addition measured after 2 hrs by fluorescence polarization assay
Entries annotated with measured IC50

# QUERY SMILES, MEASUREMENT UNITS, MODIFIER SIGN, IC50
measured = [
    ("Cc1ncsc1-c1ccc(CNC(=O)[C@@H]2C[C@@H](O)CN2C(=O)[C@@H](NC(=O)COCCCOCCCCOCCCOc2ccc(Nc3ncc(Br)c(NCCCN(C)C(=O)C4CCC4)n3)cc2)C(C)C)cc1", "µM", "=", 5.5),
    ("Cc1ncsc1-c1ccc(CNC(=O)[C@@H]2C[C@H](O)CN2C(=O)[C@@H](NC(=O)COCCCOCCCCOCCCOc2ccc(Nc3ncc(Br)c(NCCCN(C)C(=O)C4CCC4)n3)cc2)C(C)(C)C)cc1", "µM", ">", 100),
    ("Cc1ncsc1-c1ccc(CNC(=O)[C@@H]2C[C@@H](O)CN2C(=O)CNC(=O)COCCCOCCCCOCCCOc2ccc(Nc3ncc(Br)c(NCCCN(C)C(=O)C4CCC4)n3)cc2)cc1", "µM", ">", 100),
    ("CC[C@H](NC(=O)COCCCOCCCCOCCCOc1ccc(Nc2ncc(Br)c(NCCCN(C)C(=O)C3CCC3)n2)cc1)C(=O)N1C[C@H](O)C[C@H]1C(=O)NCc1ccc(-c2scnc2C)cc1", "µM", "=", 9.9),
]
